Origin of values: paper PMC7156458

Recorded Th-T fluorescence, mean of three wells by entry
# TESTED ON: Aβ42 (Homo sapiens)
# MEASUREMENT DESCRIPTION: Th-T (thioflavin-T) assay of Aβ42 aggregation
# Format: biochemical
# CONDITION SUMMARY: Supplementary Fig. 47 source data; measurement M38 of time course
READOUT TYPE: Th-T fluorescence, mean of three wells

[[record]]
compound = "C=C1CCC2C(C)(CC(=O)C=C(C)C)C(O)CCC2(C)C1Cc1c(OC)oc(C)c(C)c1=O (stereo not drawn)"
tested_on = "Aβ42 (Homo sapiens)"
value_measured = 3.672

[[record]]
compound = "C=C1CCC2C(C)(CC(=O)C=C(C)C)C(O)CCC2(C)C1Cc1c(O)c(C)c(C)oc1=O (stereo not drawn)"
tested_on = "Aβ42 (Homo sapiens)"
value_measured = 3.519

[[record]]
compound = "C=C1CC[C@H]2[C@]3(C)C[C@H](C=C(C)C)O[C@H]3CC[C@]2(C)[C@@H]1Cc1c(OC)oc(C)c(C)c1=O"
tested_on = "Aβ42 (Homo sapiens)"
value_measured = 4.1

[[record]]
compound = "C=C1CC[C@H]2[C@]3(C)C[C@@H](C=C(C)C)O[C@H]3CC[C@]2(C)[C@@H]1Cc1c(OC)oc(CO)c(C)c1=O"
tested_on = "Aβ42 (Homo sapiens)"
value_measured = 3.349

[[record]]
compound = "C=C1CC[C@H]2[C@]3(C)C[C@H](C=C(C)C)O[C@H]3CC[C@]2(C)[C@@H]1Cc1c(O)c(C)c(C)oc1=O"
tested_on = "Aβ42 (Homo sapiens)"
value_measured = 3.04

[[record]]
compound = "C=C1CCC2C(C)(CCC=C(C)C)C(=O)CCC2(C)C1Cc1c(O)c(C)c(C)oc1=O (stereo not drawn)"
tested_on = "Aβ42 (Homo sapiens)"
value_measured = 2.163

[[record]]
compound = "CC(C)=CCC/C(C)=C/CC/C(C)=C/CC/C(C)=C/Cc1c(O)c(C)c(C)oc1=O"
tested_on = "Aβ42 (Homo sapiens)"
value_measured = 2.734

[[record]]
compound = "C=C1CCC2C(C)(CC(=O)C=C(C)C)C(O)CCC2(C)C1Cc1c(OC)oc(CO)c(C)c1=O (stereo not drawn)"
tested_on = "Aβ42 (Homo sapiens)"
value_measured = 3.42

[[record]]
compound = "C=C1CC[C@H]2[C@]3(C)C[C@H](C=C(C)C)O[C@H]3CC[C@]2(C)[C@@H]1Cc1c(OC)oc(CO)c(C)c1=O"
tested_on = "Aβ42 (Homo sapiens)"
value_measured = 3.788


====

# TESTED ON: Aβ42 (Homo sapiens, UniProt P05067)
# Sequence (P05067 672-713): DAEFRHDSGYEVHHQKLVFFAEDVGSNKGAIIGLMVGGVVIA
# MEASUREMENT DESCRIPTION: Th-T (thioflavin-T) assay of Aβ42 aggregation
# Type: biochemical
# CONDITION SUMMARY: compound at 10; reading M59 of time course
READOUT TYPE: Th-T fluorescence, mean of three wells

[[record]]
compound = "C=C1CC[C@@H]2[C@](C)(CC[C@H]3O[C@H](C=C(C)C)C[C@@]23C)[C@@H]1Cc1c(OC)oc(CO)c(C)c1=O"
value_measured = 3.461

[[record]]
compound = "C=C1CCC2C(C)(CCC=C(C)C)C(O)CCC2(C)C1Cc1c(OC)oc(CO)c(C)c1=O (centres unmarked)"
value_measured = 3.451

[[record]]
compound = "C=C1CCC2C(C)(CCC=C(C)C)C(O)CCC2(C)C1Cc1c(OC)oc(C)c(C(=O)OC)c1=O (centres unmarked)"
value_measured = 2.634

[[record]]
compound = "C=C1CC[C@@H]2[C@](C)(CC[C@H]3O[C@H](C=C(C)C)C[C@@]23C)[C@@H]1Cc1c(OC)oc(CO)c(C(=O)OC)c1=O"
value_measured = 0.3536

[[record]]
compound = "C=C1CCC2C(C)(CCC=C(C)C)C(O)CCC2(C)C1Cc1c(OC)oc(CO)c(C(=O)OC)c1=O (centres unmarked)"
value_measured = 1.549


====

# TESTED ON: Aβ42 (Homo sapiens, UniProt P05067)
# MEASUREMENT DESCRIPTION: Th-T (thioflavin-T) assay of Aβ42 aggregation
# Assay type: biochemical
# CONDITION SUMMARY: Supplementary Fig. 47 source data; measurement M42 of time course
READOUT TYPE: Th-T fluorescence, mean of three wells

[[record]]
compound = "C=C1CCC2C(C)(CC(=O)C=C(C)C)C(O)CCC2(C)C1Cc1c(OC)oc(CO)c(C)c1=O (stereo not drawn)"
readout_type = "Th-T fluorescence, mean of three wells"
value_measured = 3.511

[[record]]
compound = "C=C1CC[C@H]2[C@]3(C)C[C@@H](C=C(C)C)O[C@H]3CC[C@]2(C)[C@@H]1Cc1c(OC)oc(CO)c(C)c1=O"
readout_type = "Th-T fluorescence, mean of three wells"
value_measured = 3.371

[[record]]
compound = "C=C1CC[C@H]2[C@]3(C)C[C@@H](C=C(C)C)O[C@H]3CC[C@]2(C)[C@@H]1Cc1c(O)c(C)c(C)oc1=O"
readout_type = "Th-T fluorescence, mean of three wells"
value_measured = 2.62

[[record]]
compound = "C=C1CCC2C(C)(CCC=C(C)C)C(=O)CCC2(C)C1Cc1c(O)c(C)c(C)oc1=O (stereo not drawn)"
readout_type = "Th-T fluorescence, mean of three wells"
value_measured = 2.198

[[record]]
compound = "C=C1CCC2C(C)(CC(=O)C=C(C)C)C(O)CCC2(C)C1Cc1c(OC)oc(C)c(C)c1=O (stereo not drawn)"
readout_type = "Th-T fluorescence, mean of three wells"
value_measured = 3.705

[[record]]
compound = "CC(C)=CCC/C(C)=C/CC/C(C)=C/CC/C(C)=C/Cc1c(O)c(C)c(C)oc1=O"
readout_type = "Th-T fluorescence, mean of three wells"
value_measured = 2.791

[[record]]
compound = "C=C1CC[C@@H]2[C@](C)(CC[C@H]3O[C@H](C=C(C)C)C[C@@]23C)[C@@H]1Cc1c(O)c(C)c(C)oc1=O"
readout_type = "Th-T fluorescence, mean of three wells"
value_measured = 3.094

[[record]]
compound = "C=C1CC[C@H]2[C@]3(C)C[C@H](C=C(C)C)O[C@H]3CC[C@]2(C)[C@@H]1Cc1c(OC)oc(C)c(C)c1=O"
readout_type = "Th-T fluorescence, mean of three wells"
value_measured = 4.118

[[record]]
compound = "C=C1CCC2C3(C)CC(C=C(C)C)OC3CCC2(C)C1Cc1c(OC)oc(C)c(C)c1=O (stereo not drawn)"
readout_type = "Th-T fluorescence, mean of three wells"
value_measured = 3.943

[[record]]
compound = "C=C1CCC2C(C)(CC(=O)C=C(C)C)C(O)CCC2(C)C1Cc1c(O)c(C)c(C)oc1=O (stereo not drawn)"
readout_type = "Th-T fluorescence, mean of three wells"
value_measured = 3.534

[[record]]
compound = "C=C1CC[C@H]2[C@]3(C)C[C@H](C=C(C)C)O[C@H]3CC[C@]2(C)[C@@H]1Cc1c(O)c(C)c(C)oc1=O"
readout_type = "Th-T fluorescence, mean of three wells"
value_measured = 3.072

[[record]]
compound = "C=C1CC[C@H]2[C@]3(C)C[C@H](C=C(C)C)O[C@H]3CC[C@]2(C)[C@@H]1Cc1c(OC)oc(CO)c(C)c1=O"
readout_type = "Th-T fluorescence, mean of three wells"
value_measured = 3.8461


====

# TESTED ON: UniProt:P05067
# MEASUREMENT DESCRIPTION: Th-T (thioflavin-T) assay of Aβ42 aggregation
# Assay type: biochemical
# CONDITION SUMMARY: concentration 10, unit not given; time-course reading M129
READOUT TYPE: Th-T fluorescence of Aβ42 with compound, mean of three wells (Fig. 7a source data)

[[record]]
molecule = "C=C1CCC2C(C)(CCC=C(C)C)C(O)CCC2(C)C1Cc1c(OC)oc(CO)c(C(=O)OC)c1=O (centres unmarked) [Compound 13]"
value_measured = 1.537

[[record]]
molecule = "C=C1CCC2C(C)(CCC=C(C)C)C(O)CCC2(C)C1Cc1c(OC)oc(CO)c(C)c1=O (centres unmarked) [Compound 12]"
value_measured = 2.41

[[record]]
molecule = "C=C1CC[C@@H]2[C@](C)(CC[C@H]3O[C@H](C=C(C)C)C[C@@]23C)[C@@H]1Cc1c(OC)oc(CO)c(C(=O)OC)c1=O [Compound 21]"
value_measured = 1.701

[[record]]
molecule = "C=C1CC[C@@H]2[C@](C)(CC[C@H]3O[C@H](C=C(C)C)C[C@@]23C)[C@@H]1Cc1c(OC)oc(CO)c(C)c1=O [Compound 20]"
value_measured = 3.179

[[record]]
molecule = "C=C1CCC2C(C)(CCC=C(C)C)C(O)CCC2(C)C1Cc1c(OC)oc(C)c(C(=O)OC)c1=O (centres unmarked) [Compound 14]"
value_measured = 2.897

